Overview of reported melting point across a group of compounds:

The cases that follow already have their melting point on record.
>>> df
                                   compound         result
0  O=[N+]([O-])c1cn2c(n1)OC(COc1ccc(-c3ccc(OC(F)(F)F)cc3)cn1)CC2 (stereo not drawn)  161 to 163 °C
1  O=[N+]([O-])c1cn2c(n1)OCC(COc1ccc(-c3ccc(OC(F)(F)F)cc3)cc1)C2 (stereo not drawn)  192 to 194 °C
2  O=[N+]([O-])c1cn2c(n1)OCC(COc1ccc(OC(F)(F)F)cc1)C2 (racemic)  141 to 143 °C
3  O=[N+]([O-])c1cn2c(n1)OC[C@H](COc1ccc(OC(F)(F)F)cc1)C2  139 to 140 °C
4  O=[N+]([O-])c1cn2c(n1)OCC(COCc1cccc(-c3ccc(OC(F)(F)F)cc3)c1)C2 (stereo not drawn)    78 to 80 °C

Prompt: Provide only the value of recorded melting point for CC1(COc2ccc(-c3ccc(C(F)(F)F)cc3)nc2)CCn2cc([N+](=O)[O-])nc2O1 (stereo not drawn)
Response: 215 to 217 °C

Prompt: Provide only the value of recorded melting point for CC1(COc2ccc(-c3ccc(F)cc3)nc2)Cn2cc([N+](=O)[O-])nc2O1 (stereo not drawn)
Response: 180 to 181 °C

Prompt: Provide only the value of recorded melting point for O=[N+]([O-])c1cn2c(n1)OC[C@@H](COc1ccc(OC(F)(F)F)cc1)C2
Response: 138 to 139 °C

Prompt: Provide only the value of recorded melting point for O=[N+]([O-])c1cn2c(n1)OC(COc1ccc(-c3ccc(F)cc3)cc1)C2 (stereo not drawn)
Response: 224 to 226 °C

Prompt: Provide only the value of recorded melting point for O=[N+]([O-])c1cn2c(n1)OCC(COc1ccc(-c3ccc(C(F)(F)F)cc3)cn1)C2 (stereo not drawn)
Response: 180 to 182 °C

Prompt: Provide only the value of recorded melting point for CC1(COCc2ccc(OC(F)(F)F)cc2)CCn2cc([N+](=O)[O-])nc2O1 (stereo not drawn)
Response: 100 to 101 °C

Prompt: Provide only the value of recorded melting point for CC1(COc2cnc(-c3ccc(F)cc3)cn2)Cn2cc([N+](=O)[O-])nc2O1 (stereo not drawn)
Response: 200 to 201 °C

Prompt: Provide only the value of recorded melting point for O=[N+]([O-])c1cn2c(n1)OC(COc1ccc(-c3ccc(C(F)(F)F)cc3)cc1)C2 (stereo not drawn)
Response: 210 to 211 °C

Prompt: Provide only the value of recorded melting point for CC1(COc2ccc(-c3ccc(OC(F)(F)F)cc3)nc2)CCn2cc([N+](=O)[O-])nc2O1 (stereo not drawn)
Response: 202 to 203 °C

Prompt: Provide only the value of recorded melting point for O=[N+]([O-])c1cn2c(n1)OC(COCc1cccc(OC(F)(F)F)c1)CC2 (stereo not drawn)
Response: 100 to 112 °C

Prompt: Provide only the value of recorded melting point for O=[N+]([O-])c1cn2c(n1)OC(COc1ccc(-c3ccc(OC(F)(F)F)cc3)cn1)C2 (stereo not drawn)
Response: 127 to 130 °C

Prompt: Provide only the value of recorded melting point for O=[N+]([O-])c1cn2c(n1)OCC(COCc1ccc(OC(F)(F)F)cc1)C2 (stereo not drawn)
Response: 92 to 93 °C

Prompt: Provide only the value of recorded melting point for CC1(COc2ccc(OCc3ccccc3)cc2)Cn2cc([N+](=O)[O-])nc2O1 (stereo not drawn)
Response: 162 to 165 °C
